Target: T1, recombinant human BCMA (ELISA antigen, construct not specified) (human, UniProt Q02223 1-54)
T1 construct: Fc 1-51; Fc/His 1-51; Fc 4-48) was coated in these ELISAs; also called recombinant BCMA; recombinant protein
T1 sequence: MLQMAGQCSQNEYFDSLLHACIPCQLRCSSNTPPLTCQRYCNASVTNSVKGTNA
Test: ELISA on coated recombinant human BCMA, antibody titrated, HRP anti-Fab detection, absorbance 450 nm
Parameter: EC50 (read off the curve)

**Q:** Consider the binder anti-BCMA IgG antibody B58 (antibody, V domains shown, also called B58 antibody) VH: EVQLLESGGGLVQPGGSLRLSCAASGFTFSNYDMSWVRQAPGKGLEWVSWIYPSDSSIYYADSVKGRFTISRDNSKNTLYLQMNSLRAEDTAVYYCARGPFANKYRQFDYWGQGTLVTVSS VL: QSVLTQPPSASGTPGQRVTISCSGSSSNIGSNSVSWYQQLPGTAPKLLIYADSKRPSGVPDRFSGSKSGTSASLAISGLRSEDEADYYCGSWDYSLSGYVFGGGTKLTVL . State its measured EC50 (read off the curve).
**A:** ~0.005 µg/mL

**Q:** Consider the binder anti-BCMA IgG antibody 5C3 (antibody, V domains shown) VH: EVQLLESGGGLVQPGGSLRLSCAASGFTFSDYYIHWVRQAPGKGLEWVSAISGSGGSTYYADSVKGRFTISRDNSKNTLYLQMNSLRAEDTAVYYCASDLGDTTFDSWGQGTLVTVSS VL: EIVLTQSPGTLSLSPGERATLSCQASDDISNYLNWYQQKPGQAPRLLIYGVSNRASGIPDRFSGSGSGTDFTLTISRLEPEDFAVYYCQQSYSTPPITFGQGTKLEIKR . State its measured EC50 (read off the curve).
**A:** ~0.9 µg/mL

**Q:** Consider the binder anti-BCMA IgG antibody 5D5 (antibody, V domains shown, also called 5D5 WT; 5D5 antibody) VH: EVQLLESGGGLVQPGGSLRLSCAASGFTFSDYGLSWVRQAPGKGLEWVSLIDSSGSSTFYADSVKGRFTISRDNSKNTLYLQMNSLRAEDTAVYYCAKEHGLFDSWGQGTLVTVSS VL: EIVLTQSPGTLSLSPGERATLSCKASQDIDDDINWYQQKPGQAPRLLIYDASLRATGIPDRFSGSGSGTDFTLTISRLEPEDFAVYYCQQSLRTPITFGQGTKLEIKR . State its measured EC50 (read off the curve).
**A:** ~0.1 µg/mL

All figures here come from patent US20210284749A1.
